target: wild type PAN protein (PA endonuclease domain) (Influenza A virus, UniProt C3W5S0); experiment: biochemical; assay type: binding; settings: WT FP Ki
Items are presented alongside their recorded pKi.
For clarity, pKi is expressed as the negative log10 of concentration in mol/L.

- Compound: "O=C(NCCc1ccccn1)c1nc([C@@H]2CCCN2C(=O)COc2ccccc2F)[nH]c(=O)c1O [Compound 10m]"
  pKi: 6.40

Query compound follows.
# input Which pKi is listed for O=C(NCCOc1ccccc1)c1nc([C@@H]2CCCN2C(=O)COc2ccccc2Cl)[nH]c(=O)c1O [Compound 9f] ?
# output 6.30

----------
target: wild type PAN protein (PA endonuclease domain) (Influenza A virus, UniProt C3W5S0); assay: biochemical; assay type: binding; details: FP Ki
Experimental Readout: Ki
I'd appreciate it if you included the unit after the number.

Below, each entry is followed by its recorded Ki result.
- Molecule: "O=C(NCCc1ccccc1)c1nc([C@@H]2CCCN2C(=O)CCc2ccccc2Cl)[nH]c(=O)c1O [Compound 9a]"
  Ki: "1200 nM"
- Molecule: "O=C(NCCc1ccccc1)c1nc([C@@H]2CCCN2C(=O)c2ccnc(Cl)c2)[nH]c(=O)c1O [Compound 7e]"
  Ki: "17500 nM"

# input Request the reported Ki associated with O=C(NCCc1cccc(C(F)(F)F)c1)c1nc([C@@H]2CCCN2C(=O)c2c(Cl)cncc2Cl)[nH]c(=O)c1O [Compound 8c]
# output 100 nM

Taken from paper PMC5719402.
